assay: LAP Rat PK study, SQ and IM injections (IV values given for reference); conditions: in vivo, sc, SQ, dose 20 mg/kg, Sprague-Dawley rats, n=3
Measured Metric: half-life (days)
Numbers only, in days.

Using the record for "CC(C)C1=C2[C@H]3CC[C@@H]4[C@@]5(C)CC[C@H](OC(=O)CC(C)(C)C(=O)O)C(C)(C)[C@@H]5CC[C@@]4(C)[C@]3(C)CC[C@@]2([C@@H](O)CN(CCN(C)C)Cc2ccc(Cl)cc2)CC1=O" , report its half-life. 19.3

====

Assay: LAP Rat PK study, SQ and IM injections (IV values given for reference)
Settings: in vivo, IM, dose 5 mg/kg, Sprague-Dawley rats, n=3
Protocol: Injections were made in Sprague-Dawley rats SQ and IM at 5 and 20 mg/kg doses with T1/2, Cmax, Tmax, and AUC being measured.
Measured Metric: Cmax (ng/mL)
Give bare numbers, in ng/mL.

Using the record for "CC(C)C1=C2[C@H]3CC[C@@H]4[C@@]5(C)CC[C@H](OC(=O)CC(C)(C)C(=O)O)C(C)(C)[C@@H]5CC[C@@]4(C)[C@]3(C)CC[C@@]2([C@@H](O)CN(CCN(C)C)Cc2ccc(Cl)cc2)CC1=O" , report its Cmax. 100
